Target: EP300 (P300(1048-1664)) (Homo sapiens)
Construct: P300(1048-1664)
Sequence (Q09472 1048-1664): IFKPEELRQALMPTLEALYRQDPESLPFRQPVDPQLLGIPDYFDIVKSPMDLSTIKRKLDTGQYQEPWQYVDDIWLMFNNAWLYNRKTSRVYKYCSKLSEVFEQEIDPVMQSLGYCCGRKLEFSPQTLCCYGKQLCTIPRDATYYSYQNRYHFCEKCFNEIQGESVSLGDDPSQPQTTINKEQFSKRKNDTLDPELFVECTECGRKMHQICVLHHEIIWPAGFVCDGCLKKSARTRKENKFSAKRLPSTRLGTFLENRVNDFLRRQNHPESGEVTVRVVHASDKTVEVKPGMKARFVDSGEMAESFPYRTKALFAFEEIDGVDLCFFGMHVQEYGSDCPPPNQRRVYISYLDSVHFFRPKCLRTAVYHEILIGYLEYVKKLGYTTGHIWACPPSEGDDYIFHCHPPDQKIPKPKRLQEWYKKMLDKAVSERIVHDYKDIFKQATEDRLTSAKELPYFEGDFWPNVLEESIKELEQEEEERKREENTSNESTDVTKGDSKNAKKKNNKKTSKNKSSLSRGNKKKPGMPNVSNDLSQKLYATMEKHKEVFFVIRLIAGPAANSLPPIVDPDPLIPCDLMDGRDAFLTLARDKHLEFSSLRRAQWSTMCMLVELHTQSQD
Assay: Biochemical assay for EP300, SAMDI
Conditions: EP300, SAMDI; read-out: EP300 Biochemistry IC50
pIC50: −log10 of the molar value.
Assign True to entries whose pIC50 meets or exceeds 7; assign False to the rest.

{"itemSmiles": "CCn1ncc(CN(C)C(=O)c2nc(-c3ccc(NC4CCNCC4)cn3)nc3ccc(Cl)cc23)c1C", "classAssignment": "False"}
{"itemSmiles": "CCc1ncc(CN(C)C(=O)c2cc(-c3ccc(NCCNC)c(F)n3)nc3ccc(Cl)cc23)n1C", "classAssignment": "True"}
{"itemSmiles": "CCn1ncc(CN(C)C(=O)c2nc(-c3cc4[nH]ncc4cc3C)nc3ccc(Cl)cc23)c1C", "classAssignment": "True"}
{"itemSmiles": "CCn1ncc(CN(C)C(=O)c2nc(-c3cc(C)cc(N[C@H]4CCNC4)c3)nc3ccc(Cl)cc23)c1C", "classAssignment": "True"}
{"itemSmiles": "CCn1ncc(CN(C)C(=O)c2nc(-c3ccc(C(=O)NC)c(C)c3)nc3ccc(Cl)cc23)c1C", "classAssignment": "False"}
{"itemSmiles": "CCn1ncc(CN(C)C(=O)c2cc(-c3cnc(CNC)[nH]3)nc3ccc(Cl)cc23)c1C", "classAssignment": "False"}
{"itemSmiles": "CCn1ncc(CN(C)C(=O)c2nc(-c3ccc(OCCNC)c(Cl)c3)nc3ccc(CS(C)(=O)=O)cc23)c1C", "classAssignment": "False"}
{"itemSmiles": "CCn1ncc(CN(C)C(=O)c2nc(-c3ccc(OCCCN(C)C(=O)OC(C)(C)C)c(C)c3)nc3ccc(Cl)cc23)c1C", "classAssignment": "False"}
{"itemSmiles": "CCn1ncc(CN(C)C(=O)c2cc(-n3cc4c(n3)CNCC4)nc3ccc(Cl)cc23)c1C", "classAssignment": "False"}
{"itemSmiles": "CCn1ncc(CN(C)C(=O)c2nc(-c3cccc(Cl)c3)nc3cc(N4CCOCC4)c(Cl)cc23)c1C", "classAssignment": "False"}
{"itemSmiles": "CCn1ncc(CN(C)C(=O)c2nc(-c3cc(C)nc(NCCNC)c3)nc3ccc(COC)cc23)c1C", "classAssignment": "True"}
{"itemSmiles": "CCc1ncc(CN(C)C(=O)c2nc(-c3cc(C)nc(NCCNC)c3)nc3ccc(Cl)cc23)n1C", "classAssignment": "True"}
{"itemSmiles": "CCn1ncc(CN(C)C(=O)c2cc(-c3ccc(NCCNC)c(C)n3)nc3ccc(Cl)cc23)c1COC", "classAssignment": "False"}
{"itemSmiles": "CCn1ncc(CN(C)C(=O)c2nc(-c3ccc4n[nH]c(NC)c4c3)nc3ccc(Cl)cc23)c1C", "classAssignment": "True"}
